The reported numbers originate from ChEMBL document CHEMBL4513216.

System: Plasmodium falciparum
Assay: Screen against P. falciparum Asexual Blood Stage (ABS), at 5uM
Type: functional, Dd2
Conditions: tested at 5 uM
The whole screen tested about 65,000 compounds, of which about 2,100 (3.2%) showed an effect of 50% or more. The median lay at about -52%. The sample holds strong results, similar compounds and a random draw of the others, so the mix is not that of the screen.
Quick reference for INHIBITION among some compounds
The response must be a number in % with no trailing unit.

Known INHIBITION results, listed for orientation:
compound: CCc1[nH]c2c(CNc3nccc(N)n3)cc(F)cc2c1C
measuredParameter: INHIBITION
endpointUnit: %
dataValue: 85.6

compound: CC(C)c1n[nH]c(C(=O)Nc2ccccn2)c1Br
measuredParameter: INHIBITION
endpointUnit: %
dataValue: 84.6

compound: Cc1nc(CO[C@@H]2CC[C@H]3[C@H]2OCCN3Cc2cccnc2)cs1
measuredParameter: INHIBITION
endpointUnit: %
dataValue: -22.1

compound: CN(C)CCN(C(=O)Cc1ccc2c(c1)OCCO2)C1CCN(C)CC1
measuredParameter: INHIBITION
endpointUnit: %
dataValue: -48.3

compound: CC(C)N1CCCC1c1nc(N(C)C)ncc1I (stereo not drawn)
measuredParameter: INHIBITION
endpointUnit: %
dataValue: 70.7

Exam item: Given CC(C)N1CCCCC1c1nc(N(C)C)ncc1I (stereo not drawn) , state its recorded INHIBITION.
Marked response: 72

Exam item: Cc1ccnc(NCCNC(=O)C2CC3(CCNCC3)CN2C)c1 (stereo not drawn) ?
Marked response: -81.4

Exam item: COc1ncccc1CN1CCC2[C@H]1CCN2CCN(C)C (stereo partly drawn) ?
Marked response: 53.9
